Tested on: HCV 1b genotype
test: HCV replicon assay (HCV-neo replicon cells, wild-type)
Type: cell-based, Hepatitis C virus
stated_conditions: Hepatitis C virus, HCV 1b genotype replicon; class symbols; read-out: EC50 Range against HCV 1b
measured_endpoint: EC50

> print(dat)
                           molecular.string    tested.target  measured.endpoint  observed.value
1  O=C(Nc1ccc(-c2cnc(-c3ccc(NC(=O)[C@@H]4C[C@@H](O)CN4C(=O)CC4CC4)cc3)o2)cc1)[C@@H]1C[C@@H](O)CN1C(=O)CC1CC1  HCV 1b genotype               EC50      1 to 10 µM
2  O=C(Nc1ccc(-c2cnc(-c3ccc(NC(=O)[C@@H]4C[C@@H](O)CN4C(=O)[C@H]4CCCO4)cc3)o2)cc1)[C@@H]1C[C@@H](O)CN1C(=O)[C@H]1CCCO1  HCV 1b genotype               EC50      1 to 10 µM

Now for the molecule whose EC50 we want.
Value wanted: EC50 (HCV 1b genotype) of entry Cc1ccc(C)c(C(=O)N2CCC[C@H]2C(=O)Nc2ccc(-c3cnc(-c4ccc(NC(=O)[C@@H]5CCCN5C(=O)c5cc(C)ccc5C)cc4)o3)cc2)c1
1 to 10 µM

----------
Tested on: HCV 1b genotype
test: HCV replicon assay (HCV-neo replicon cells, wild-type)
Format: cell-based, Hepatitis C virus
stated_conditions: Hepatitis C virus, HCV 1b genotype replicon; class symbol; read-out: EC50 Range against HCV 1b
measured_endpoint: EC50

> print(dat)
                           molecular.string  measured.endpoint  observed.value
1  CC(=O)N1CCC[C@H]1C(=O)Nc1ccc(-c2nc(-c3ccc(NC(=O)[C@@H]4C=CCN4C(=O)[C@H]4CCCO4)cc3)cs2)cc1               EC50      1 to 10 µM

Batch lookup, EC50 per entry.
1. CC(=O)N1CCC[C@H]1C(=O)Nc1ccc(-c2ncc(-c3ccc(NC(=O)[C@@H]4CCCN4C(=O)Cc4ccccc4)cc3)o2)cc1
2. O=C(Nc1ccc(-c2nncn2-c2ccc(NC(=O)[C@@H]3CCCN3C(=O)Cc3ccccc3)cc2)cc1)[C@@H]1CCCN1C(=O)Cc1ccccc1

["0.1 to 0.999 µM", "1 to 10 µM"]

----------
Please go through the items and note down their EC50.
Tested on: HCV 1b genotype
test: HCV replicon assay (HCV-neo replicon cells, wild-type)
Assay type: cell-based, Hepatitis C virus
stated_conditions: Hepatitis C virus, HCV 1b genotype replicon; class symbol; read-out: EC50 Range against HCV 1b

> print(dat)
                           molecular.string  observed.value
1  C[C@H](NC(=O)[C@@](C)(O)c1ccccc1)C(=O)Nc1ccc(-c2nnc(-c3ccc(NC(=O)[C@H](C)NC(=O)[C@@](C)(O)c4ccccc4)cc3)o2)cc1   100 to 999 nM

Batch lookup, EC50 per entry.
1. O=C(Nc1ccc(-c2cc(-c3ccc(NC(=O)[C@@H]4CCCN4C(=O)Cc4ccccc4)cc3)[nH]n2)cc1)[C@@H]1CCCN1C(=O)Cc1ccccc1
2. O=C(Nc1ccc(-c2nc[nH]c2-c2ccc(NC(=O)[C@@H]3CCCN3C(=O)OCc3ccccc3)cc2)cc1)[C@@H]1CCCN1C(=O)OCc1ccccc1
3. O=C(Nc1ccc(-c2nc[nH]c2-c2ccc(NC(=O)[C@@H]3C[C@@H](O)CN3C(=O)Cc3ccccc3)cc2)cc1)[C@@H]1C[C@@H](O)CN1C(=O)Cc1ccccc1
4. CC(=O)N1CCC[C@H]1C(=O)Nc1ccc(-c2cnc(-c3ccc(NC(=O)[C@@H]4C=CCN4C(=O)c4cccs4)cc3)o2)cc1
5. O=C(Nc1ccc(-c2cnc(-c3ccc(NC(=O)[C@@H]4CCCN4C(=O)c4ccncc4)cc3)o2)cc1)[C@@H]1CCCN1C(=O)c1ccncc1

1. 4.57 to 99 nM
2. 4.57 to 99 nM
3. 100 to 999 nM
4. 1000 to 10000 nM
5. 100 to 999 nM
